# Tested on: OVCAR-4 ovarian
# assayMethodText: NCI tumour cell line growth inhibition, 48 h
endpointLabel: TGI

Q. What measured TGI is associated with COc1cccc2cc(C(C)=O)c(=O)oc12 on OVCAR-4 ovarian?
A. > 100 µM

Q. Similarly, CCOC(=O)c1cnn2c3ccccc3n(S(=O)(=O)c3ccc(OC)cc3)c12 ?
A. > 100 µM

Q. Try the compound COc1cc(C2C3=C(COC3=O)N(CCO)c3cc4c(cc32)OCO4)cc(OC)c1O (stereo unspecified)
A. > 50 µM

Q. Do the same for Cc1cn(-c2ccc(S(C)(=O)=O)cc2)c(-c2ccc(Cl)cc2)n1 please
A. > 100 µM

Q. Also check COc1ccc(Nc2nc3cc(N)cc(N)c3nc2-c2ccccc2)cc1OC
A. 52.1 µM

###

# Tested on: TK-10 renal
# assayMethodText: NCI tumour cell line growth inhibition, 48 h
Each entry below lists one item and its recorded TGI value.

CCOC(=O)c1cc(C2CCN(c3ccccc3)C2=O)c(C(=O)/C=C(/C)N)[nH]1 (stereo not given) | > 100 µM
CCN(CC)CCn1[nH]c2c3ccc(=O)cc3sc3c(NCCN)ccc1c32 | 11.3 µM
COc1cc2c(cc1C1=NC(C)(C)CO1)OCO2 | > 100 µM
COc1cccc2cc(C(C)=O)c(=O)oc12 | > 100 µM

# context switch: different compound, same TGI
Q. For CN(/N=C/c1cccc2cccnc12)c1c([N+](=O)[O-])cc([N+](=O)[O-])cc1[N+](=O)[O-] , what is its reported TGI?
A. > 100 µM

###

The following compounds are shown together with reported TGI values.
# Tested on: SNB-75 CNS
# assayMethodText: NCI tumour cell line growth inhibition, 48 h

Cc1c(C(N)=O)sc2c1c(=O)n(Cc1ccccc1)c1nnc(-c3ccc(Br)cc3)n21 | 20.9 µM
O=C(/C=C/C12c3ccccc3C(c3ccccc31)C1C(=O)NC(=O)C12)c1ccc(Cl)cc1 (stereo not drawn) | 2.32 µM
CNS(=O)(=O)OCC1OC(n2cnc3c(N)ncnc32)C(O)C1O (stereo not drawn) | > 100 µM

Now for another entry.
Q. For C=CCOC(=O)C1CCC(=O)N1C(=O)C(Cl)Cl (stereo not drawn) , what is its reported TGI?
A. > 100 µM

###

Recorded TGI, one value per entry.
# Test system: SF-268 CNS
# assayMethodText: NCI tumour cell line growth inhibition, 48 h

Examples from the recorded data:
O=C1CCCCC/C1=C\c1ccccc1 | > 100 µM
CN(C)c1cccc2c1C(=O)C=CC21CCc2ccc(N(C)C)c3c(N(C)C)ccc1c23 (stereo not given) | 33.8 µM
O=c1[nH]c(=O)n(C2OC(CO)C(O)C2O)cc1OCC(F)(F)F (stereo not given) | > 100 µM

Q. Endpoint output: TGI of O=C(NCCNc1nccc(-c2c(-c3cccc(O)c3)nc3sccn23)n1)c1ccccc1 . Value?
A. 87 µM

Q. Next: CC1=C(C)C2(O)C(=C(C)C1=O)/C(=C(/O)c1ccccc1)c1nc3ccccc3n12 (stereo not given)
A. > 100 µM

Q. Same for CN(C)CCNC(=O)c1cccc2ccc(-c3ccc(-c4ccccc4)cc3)nc12
A. 10.4 µM

###

# Tested on: U251 CNS
The categories you may choose from are active, inactive

Recorded results for 6 compounds are shown here.
CNS(=O)(=O)OCC1OC(n2cnc3c(N)ncnc32)C(O)C1O (configuration not stated) | inactive
CCOC(=O)c1cnn2c3ccccc3n(S(=O)(=O)c3ccc(OC)cc3)c12 | active
O=C(Nc1ccccc1O)c1ccc(NS(=O)(=O)c2cccc3cccnc23)cc1 | inactive
O=C(NCc1ccco1)c1cccc(NC2=C(Cl)C(=O)N(Cc3ccccc3)C2=O)c1 | inactive
COc1ccccc1NS(=O)(=O)c1ccc2oc(SC(C)C)nc2c1 | inactive
COc1cc(C2C3=C(COC3=O)N(CCO)c3cc4c(cc32)OCO4)cc(OC)c1O (configuration not stated) | inactive

Q. Hey, what did the test say about COc1ccc(N(/C=C/C(=O)C(F)(F)F)CC(=O)c2ccc(Cl)cc2)cc1 ?
A. inactive

###

# Tested on: HOP-92 NSCLC
# assayMethodText: NCI tumour cell line growth inhibition, 48 h
Returns Satisfied if the recorded TGI is greater than or equal to 20 µM, and Not satisfied otherwise.

Reference set, count: 6
O=S(=O)(Nc1ccc(F)c(Cl)c1)c1ccc(-c2cnc(C3CC3)o2)cc1 | Not satisfied
CO[C@@H]1C[C@H](OC(N)=O)[C@@H]2C=C[C@@H]3/C=C(C)/C=C/[C@@H](C)[C@H](/C(C)=C/[C@@H](C)NC(C)=O)OC(=O)/C=C/C=C(C)\C=C\[C@]3(C)[C@@H]2C1 | Not satisfied
O=[N+]([O-])/C(C(Cl)=C(Cl)Cl)=C(\N1CCCCC1)n1nnc2ccccc21 | Satisfied
CN1CCN(Cc2ccc3c(NNC(=O)c4ccccc4)nc4cc(F)ccc4n23)CC1 | Satisfied
CC(C)(C)C1=CC(=C2C=Cc3ccccc3O2)C=C(C(C)(C)C)C1=O | Satisfied
CC1=C(C)C2(O)C(=C(C)C1=O)/C(=C(/O)c1ccccc1)c1nc3ccccc3n12 (stereo unspecified) | Satisfied

Q. Has COc1cc2ccc1OCc1cccc(n1)COc1ccc(cc1OC)C=NCCNCCNCCN=C2 a recorded TGI greater than or equal to 20 µM?
A. Satisfied

Q. Queued: COc1cccc(/C(C)=N/NC(=O)CSc2nc3ccccc3c(=O)n2CCc2ccc(S(N)(=O)=O)cc2)c1
A. Not satisfied

Q. Now give it for CCOC(=O)C(CNc1ccc(O)cc1)NC(=O)c1ccccc1 (stereo unspecified) too.
A. Satisfied

Q. # repeat for Cn1c(=O)c2[nH]cnc2n(CC(N)=O)c1=O
A. Satisfied

Q. Please give the result for CCOC(=O)c1ccc2c(c1)[n+](=O)c(C(C)=O)c(C(F)(F)F)n2[O-] too.
A. Not satisfied

Q. Moving on to the next compound: CCOC(=O)/C=C/C(=O)[C@H](CC(C)C)NC(=O)[C@H](Cc1ccccc1)NC(=O)OCc1ccccc1
A. Not satisfied

Q. Repeat with CN(/N=C/c1cccc2cccnc12)c1c([N+](=O)[O-])cc([N+](=O)[O-])cc1[N+](=O)[O-]
A. Satisfied

Q. Check CC(=O)c1cc(C(=O)c2ccc3c(c2)Sc2ccccc2N3)c2c(C)cccn12 too.
A. Satisfied

###

# Tested on: M14 melanoma
# assayMethodText: NCI tumour cell line growth inhibition, 48 h
endpointLabel: TGI

O=C(c1ccccc1)n1c(-c2ccccc2)cs/c1=N\S(=O)(=O)c1ccc(N2N=C3c4ccccc4CC3C2c2cccs2)cc1 (configuration not stated) | > 100 µM
COC1C2c3cc4c(cc3CC(C#N)(c3ccccc32)N1C(=O)c1ccccc1)OCO4 (configuration not stated) | > 100 µM

Then this compound:
Q. Could you tell me which TGI is on file for N#CN1CC[C@H](C(=O)Nc2cc3cc(C(N)=O)ccc3cn2)C1 ?
A. 1.13 µM

###

# Tested on: CCRF-CEM leukemia
# assayMethodText: NCI tumour cell line growth inhibition, 48 h
# reported TGI; entries follow

Q. Checklist item: TGI tested on CCRF-CEM leukemia, entry CC(C)/C(=N\[N+](C)(C)C)c1ccccc1 , value?
A. > 100 µM

Q. Next molecule: CCOC(=O)/C=C/C(=O)[C@H](CC(C)C)NC(=O)[C@H](Cc1ccccc1)NC(=O)OCc1ccccc1
A. 18.8 µM

Q. How about this molecule: CC(=O)N(O)Cc1ccccc1
A. > 100 µM

###

# Tested on: OVCAR-3 ovarian
# assayMethodText: NCI tumour cell line growth inhibition, 48 h; in the data active means GI50 below about 0.43 µM; inactive means the rest
Result category, one only: active, inactive

See these solved cases before continuing.
C#COc1cccc(Nc2ncnc3cc(NC(=O)[C@H](C)Cl)ccc23)c1 | inactive
COc1ccc(Nc2nc3cc(N)cc(N)c3nc2-c2ccccc2)cc1OC | inactive
CCOC(=O)/C=C/C(=O)[C@H](CC(C)C)NC(=O)[C@H](Cc1ccccc1)NC(=O)OCc1ccccc1 | inactive
Cc1c(C(N)=O)sc2c1c(=O)n(Cc1ccccc1)c1nnc(-c3ccc(Br)cc3)n21 | inactive

Please turn your attention to the following entry.
Q. Which outcome was assigned to N#CN1CC[C@H](C(=O)Nc2cc3cc(C(N)=O)ccc3cn2)C1 in this test?
A. active

###

# System: SK-MEL-2 melanoma
Output constraint: value belongs to active, inactive

Cc1ccc(-c2nc([P+](c3ccccc3)(c3ccccc3)c3ccccc3)c(Nc3ccccc3)o2)cc1 | inactive
NC(=S)N=Nc1c(O)c2ccccc2c2ccccc12 | inactive

Q. Record request — test call for O=C(N/N=C/c1cc(Cl)cc(Cl)c1[O-])c1ccccc1.O=C(N/N=C/c1cc(Cl)cc(Cl)c1[O-])c1ccccc1.[Co+2]
A. inactive

Q. What about COc1cccc(C2C3=C(COC3=O)N(CCO)c3cc4c(cc32)OCO4)c1 (stereo not given) ?
A. active

Q. Try this compound next: CCS(=O)(=O)c1ccc(OC)c(Nc2ncc(-c3ccccc3Cl)o2)c1
A. inactive
